Please provide measured pIC50 for the entries that follow.
- Test system: A2780 cells
- Experimental Protocol: MTT antiproliferative assay, A2780
- Assay type: cell-based, human
- Measurement Parameters: Homo sapiens; A2780, 72 h, MTT; read-out: calculated IC50
Scale for pIC50: -log10 of concentration given in mol/L; no unit attached.

GET /values?readout=pIC50&item= C[C@@]12CC[C@@H]3c4ccc(OCc5cn(Cc6ccccc6)nn5)c(Br)c4CC[C@H]3[C@@H]1CCC2=O [Compound 12a]
6.26

Please do the same for CC(C)(C)c1ccc(Cn2cc(COc3ccc4c(c3Br)CC[C@@H]3[C@@H]4CC[C@@]4(C)C(=O)CC[C@@H]34)nn2)cc1 [Compound 12b] as well.
4.74

Please do the same for C[C@@]12CC[C@@H]3c4cc(Br)c(OCc5cn(Cc6ccccc6)nn5)cc4CC[C@H]3[C@@H]1CCC2=O [Compound 11a] as well.
4.67

====

Please provide measured melting point for the entries that follow.

GET /values?readout=melting point&item= C[C@@]12CC[C@@H]3c4ccc(OCc5cn(Cc6ccccc6)nn5)c(Br)c4CC[C@H]3[C@@H]1CCC2=O [Compound 12a]
188 to 190 °C

Please do the same for C[C@@]12CC[C@@H]3c4cc(P(=O)(c5ccccc5)c5ccccc5)c(OCc5cn(Cc6ccccc6)nn5)cc4CC[C@H]3[C@@H]1CCC2=O [Compound 14a] as well.
117 to 120 °C

Please do the same for CC(C)(C)c1ccc(Cn2cc(COc3cc4c(cc3P(=O)(c3ccccc3)c3ccccc3)[C@H]3CC[C@@]5(C)C(=O)CC[C@H]5[C@@H]3CC4)nn2)cc1 [Compound 14b] as well.
205 to 208 °C

Please do the same for CCOP(=O)(OCC)c1c(OCc2cn(Cc3ccccc3)nn2)ccc2c1CC[C@@H]1[C@@H]2CC[C@@]2(C)C(=O)CC[C@@H]12 [Compound 15a] as well.
43 to 45 °C

Please do the same for CCOP(=O)(OCC)c1c(OCc2cn(Cc3ccc(C(C)(C)C)cc3)nn2)ccc2c1CC[C@@H]1[C@@H]2CC[C@@]2(C)C(=O)CC[C@@H]12 [Compound 15b] as well.
54 to 59 °C

Please do the same for CCOP(=O)(OCC)c1cc2c(cc1OCc1cn(Cc3ccccc3)nn1)CC[C@@H]1[C@@H]2CC[C@@]2(C)C(=O)CC[C@@H]12 [Compound 13a] as well.
75 to 80 °C

====

Please provide measured pIC50 for the entries that follow.
- Tested on: MCF-7 cells
- Experimental Protocol: MTT antiproliferative assay, MCF-7
- Format: cell-based, human
- Measurement Parameters: Homo sapiens, MCF7, 72 h, read-out: calculated IC50
Scale for pIC50: -log10 of concentration given in mol/L; no unit attached.

GET /values?readout=pIC50&item= CC(C)(C)c1ccc(Cn2cc(COc3cc4c(cc3P(=O)(c3ccccc3)c3ccccc3)[C@H]3CC[C@@]5(C)C(=O)CC[C@H]5[C@@H]3CC4)nn2)cc1 [Compound 14b]
5.15

Please do the same for C[C@@]12CC[C@@H]3c4cc(P(=O)(c5ccccc5)c5ccccc5)c(OCc5cn(Cc6ccccc6)nn5)cc4CC[C@H]3[C@@H]1CCC2=O [Compound 14a] as well.
5.08

Please do the same for CCOP(=O)(OCC)c1cc2c(cc1OCc1cn(Cc3ccc(C(C)(C)C)cc3)nn1)CC[C@@H]1[C@@H]2CC[C@@]2(C)C(=O)CC[C@@H]12 [Compound 13b] as well.
5.18

Please do the same for CCOP(=O)(OCC)c1c(OCc2cn(Cc3ccccc3)nn2)ccc2c1CC[C@@H]1[C@@H]2CC[C@@]2(C)C(=O)CC[C@@H]12 [Compound 15a] as well.
4.94
